Target: JAK1 JH1 catalytic (human) (UniProt P23458)
Sequence (P23458 whole entry, looked up): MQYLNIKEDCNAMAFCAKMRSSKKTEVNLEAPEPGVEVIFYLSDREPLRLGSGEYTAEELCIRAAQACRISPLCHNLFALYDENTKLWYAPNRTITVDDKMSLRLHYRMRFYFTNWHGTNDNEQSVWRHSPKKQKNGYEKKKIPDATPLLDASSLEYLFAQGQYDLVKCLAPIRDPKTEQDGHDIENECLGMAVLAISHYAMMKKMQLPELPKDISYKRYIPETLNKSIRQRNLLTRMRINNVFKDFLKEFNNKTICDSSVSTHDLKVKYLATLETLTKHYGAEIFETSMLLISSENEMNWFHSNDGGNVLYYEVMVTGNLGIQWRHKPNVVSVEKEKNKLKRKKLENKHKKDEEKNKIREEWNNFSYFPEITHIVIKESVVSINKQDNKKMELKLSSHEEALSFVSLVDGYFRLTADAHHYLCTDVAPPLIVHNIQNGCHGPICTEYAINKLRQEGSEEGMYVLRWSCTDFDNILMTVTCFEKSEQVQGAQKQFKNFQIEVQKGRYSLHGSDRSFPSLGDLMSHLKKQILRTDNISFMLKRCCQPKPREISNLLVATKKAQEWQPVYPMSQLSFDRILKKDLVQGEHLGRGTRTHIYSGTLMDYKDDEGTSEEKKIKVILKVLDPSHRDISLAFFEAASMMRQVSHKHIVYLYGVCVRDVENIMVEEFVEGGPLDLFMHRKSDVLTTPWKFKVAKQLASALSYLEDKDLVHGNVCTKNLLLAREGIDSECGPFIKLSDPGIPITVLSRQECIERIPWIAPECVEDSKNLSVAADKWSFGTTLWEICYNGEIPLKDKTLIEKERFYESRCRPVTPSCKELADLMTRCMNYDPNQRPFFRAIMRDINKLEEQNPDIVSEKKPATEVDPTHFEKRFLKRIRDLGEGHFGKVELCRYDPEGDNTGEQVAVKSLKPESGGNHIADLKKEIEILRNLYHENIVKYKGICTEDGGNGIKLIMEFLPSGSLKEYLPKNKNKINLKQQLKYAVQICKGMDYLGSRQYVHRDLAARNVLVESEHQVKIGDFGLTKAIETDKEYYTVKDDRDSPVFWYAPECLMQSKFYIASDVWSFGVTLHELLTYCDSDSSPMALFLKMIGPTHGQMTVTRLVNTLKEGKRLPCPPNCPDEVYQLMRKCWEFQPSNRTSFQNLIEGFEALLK
Assay: radiometric filter-binding kinase assay, Kinase HotSpot
Details: compound 0.5 µM; ATP 10 µM
Reported residual activity values follow for various compounds
Report the value in % with no unit label.

> print(dat)
                                   compound   measurement.name  recorded.result
1  CSc1nc(-c2ccc(F)cc2)c(-c2ccnc(NC(C)c3ccccc3)c2)[nH]1 (stereo not given)  residual activity              104
2           CCN1/C(=C/C(C)=O)Sc2ccc(OC)cc21  residual activity             98.9
3    Clc1ccc(Nc2nnc(Cc3ccncc3)c3ccccc23)cc1  residual activity              107
4  O=C1Cc2c([nH]c3ccc([N+](=O)[O-])cc23)-c2ccccc2N1  residual activity             97.8
5  O=c1cc(-c2cccc3c2Sc2ccccc2S3)oc(N2CCOCC2)c1  residual activity              105

Exercise: Reported residual activity, compound Cc1cc2ncc(-c3ccccc3)nc2cc1C : ____
Solution: 103

----------
Biological target: JAK3 JH1 JH2 (human)
Test: radiometric filter-binding kinase assay, Kinase HotSpot
Conditions: compound 0.5 µM; ATP 10 µM
measurement_name: residual activity (%)
Report the value in % with no unit label.

The cases that follow already have their residual activity on record.
> print(dat)
                               smiles.input  recorded.result
1  C#Cc1cccc(Nc2ncnc3cc(OCCOC)c(OCCOC)cc23)c1             91.3
2  O=C1Nc2cc(Br)ccc2/C1=C1/Nc2ccccc2/C1=N\O             53.3
3  CCCNC(=O)Nc1ccc(Oc2ncnc3cc(OC)c(OC)cc23)cc1Cl             88.9

Exercise: Reported residual activity, compound O=c1cc(-c2cccc3c2Sc2ccccc2S3)oc(N2CCOCC2)c1 : ____
Solution: 108

----------
Target: CDK5 CDK5R1 p35 (human) (UniProt Q00535+Q15078)
Experiment: radiometric filter-binding kinase assay, Kinase HotSpot
Conditions: compound 0.5 µM; ATP 10 µM
Reported residual activity values follow for various molecules
Report the value in % with no unit label.

The cases that follow already have their residual activity on record.
> print(dat)
                               smiles.input                         system.under.test  result.units  recorded.result
1  Oc1ccc(-c2nc(-c3ccc(F)cc3)c(-c3ccncc3)[nH]2)cc1  CDK5 CDK5R1 p35 (human) (UniProt Q00535+Q15078)             %             97.3
2  CC(C)[C@H](CO)Nc1nc(Nc2cccc(Cl)c2)c2ncn(C(C)C)c2n1  CDK5 CDK5R1 p35 (human) (UniProt Q00535+Q15078)             %             2.61
3  CCCNC(=O)Nc1ccc(Oc2ncnc3cc(OC)c(OC)cc23)cc1Cl  CDK5 CDK5R1 p35 (human) (UniProt Q00535+Q15078)             %               98
4  NC(=O)c1ccc(-c2nc(-c3ccccn3)c(-c3ccc4c(c3)OCCO4)[nH]2)cc1  CDK5 CDK5R1 p35 (human) (UniProt Q00535+Q15078)             %               98

Exercise: For the record NC(=O)c1ccc(N(C(N)=O)c2c(F)cccc2F)nc1-c1ccc(F)cc1F , what value of residual activity is listed for CDK5 CDK5R1 p35 (human) (UniProt Q00535+Q15078)?
Solution: 99.9
